Reference for the values: BindingDB's records for doi:10.1016/s0960-894x(01)00229-3

# Assay summary: Inhibitory activity against secretory Phospholipase A2 (s-PLA2) of Naja naja
Assay metric: IC50 (µM)

1. COc1ccc2nc(Oc3ccccc3)cc(C(N)=O)c2c1
2. COc1ccc2nc(Oc3ccccc3)cc(CC(N)=O)c2c1
Which has the smaller recorded IC50, 1 or 2 ? Lab note: record the label of whichever item you select. 2
(2: 1 µM, 1: 10 µM)
